Tested on: Enterococcus faecalis
Assay: Antibacterial activity against Enterococcus faecalis HIP14333 isolated from patients rectum by broth microdilution method
Assay type: functional
Each item that follows carries a reported MIC.
endpoint.name: MIC (µg/mL)

INSERT INTO assay_data (compound_smiles, study_target, endpoint_name, inequality_operator, result_value) VALUES
  ('CO[C@H]1/C=C/O[C@@]2(C)Oc3c(C)c(O)c4c(O)c(c(/C=N/N5CCN(C)CC5)c(O)c4c3C2=O)NC(=O)/C(C)=C\C=C\[C@H](C)[C@H](O)[C@@H](C)[C@@H](O)[C@@H](C)[C@H](OC(C)=O)[C@@H]1C', 'Enterococcus faecalis', 'MIC', '=', 1),
  ('CC[C@H]1OC(=O)[C@H](C)[C@@H](O[C@H]2C[C@@](C)(OC)[C@@H](O)[C@H](C)O2)[C@H](C)[C@@H](O[C@@H]2O[C@H](C)C[C@H](N(C)C)[C@H]2O)[C@](C)(O)C[C@@H](C)C(=O)[C@H](C)[C@@H](O)[C@]1(C)O', 'Enterococcus faecalis', 'MIC', '>', 8),
  ('C[C@H]1COc2c(N3CCN(C)CC3)c(F)cc3c(=O)c(C(=O)O)cn1c23.C[C@H]1COc2c(N3CCN(C)CC3)c(F)cc3c(=O)c(C(=O)O)cn1c23.O', 'Enterococcus faecalis', 'MIC', '>', 8),
  ('C[C@H]1c2cccc(O)c2C(=O)C2=C(O)[C@]3(O)C(=O)C(C(N)=O)=C(O)[C@@H](N(C)C)[C@@H]3[C@@H](O)[C@@H]21.O', 'Enterococcus faecalis', 'MIC', '=', 8),
  ('CN[C@H](CC(C)C)C(=O)N[C@H]1C(=O)N[C@@H](CC(N)=O)C(=O)N[C@H]2C(=O)N[C@H]3C(=O)N[C@H](C(=O)N[C@H](C(=O)O)c4cc(O)cc(O)c4-c4cc3ccc4O)[C@H](O)c3ccc(c(Cl)c3)Oc3cc2cc(c3O[C@@H]2O[C@H](CO)[C@@H](O)[C@H](O)[C@H]2O[C@H]2C[C@](C)(N)[C@H](O)[C@H](C)O2)Oc2ccc(cc2Cl)[C@H]1O', 'Enterococcus faecalis', 'MIC', '=', 1020),
  ('CN[C@@H]1[C@H](O[C@H]2[C@H](O[C@H]3[C@H](O)[C@@H](O)[C@H](N=C(N)N)[C@@H](O)[C@@H]3N=C(N)N)O[C@@H](C)[C@]2(O)C=O)O[C@@H](CO)[C@H](O)[C@H]1O', 'Enterococcus faecalis', 'MIC', '≤', 1000);

---

Tested on: Staphylococcus aureus
Experiment: Antibacterial activity against vancomycin-resistant Staphylococcus aureus AIS2006049 isolated from patients arm wound by broth microdilution method
Type: functional
endpoint.name: MIC

INSERT INTO results (molecule, result_value) VALUES
  ('C[C@H]1COc2c(N3CCN(C)CC3)c(F)cc3c(=O)c(C(=O)O)cn1c23.C[C@H]1COc2c(N3CCN(C)CC3)c(F)cc3c(=O)c(C(=O)O)cn1c23.O [LEVOFLOXACIN]', '8 µg/mL'),
  ('CCCCCCCCCC(=O)N[C@@H](Cc1c[nH]c2ccccc12)C(=O)N[C@H](CC(N)=O)C(=O)N[C@@H](CC(=O)O)C(=O)N[C@@H]1C(=O)NCC(=O)N[C@@H](CCCN)C(=O)N[C@@H](CC(=O)O)C(=O)N[C@H](C)C(=O)N[C@@H](CC(=O)O)C(=O)NCC(=O)N[C@H](CO)C(=O)N[C@@H]([C@H](C)CC(=O)O)C(=O)N[C@@H](CC(=O)c2ccccc2N)C(=O)O[C@@H]1C', '2 µg/mL'),
  ('C[C@H]1c2cccc(O)c2C(=O)C2=C(O)[C@]3(O)C(=O)C(C(N)=O)=C(O)[C@@H](N(C)C)[C@@H]3[C@@H](O)[C@@H]21.O [DOXYCYCLINE]', '≤ 1 µg/mL'),
  ('CC[C@H]1OC(=O)[C@H](C)[C@@H](O[C@H]2C[C@@](C)(OC)[C@@H](O)[C@H](C)O2)[C@H](C)[C@@H](O[C@@H]2O[C@H](C)C[C@H](N(C)C)[C@H]2O)[C@](C)(O)C[C@@H](C)C(=O)[C@H](C)[C@@H](O)[C@]1(C)O [ERYTHROMYCIN]', '> 8 µg/mL'),
  ('CCC[C@@H]1C[C@@H](C(=O)N[C@@H]([C@H]2O[C@H](SC)[C@H](O)[C@@H](O)[C@H]2O)[C@H](C)Cl)N(C)C1 [CLINDAMYCIN]', '> 16 µg/mL'),
  ('CO[C@H]1/C=C/O[C@@]2(C)Oc3c(C)c(O)c4c(O)c(c(/C=N/N5CCN(C)CC5)c(O)c4c3C2=O)NC(=O)/C(C)=C\C=C\[C@H](C)[C@H](O)[C@@H](C)[C@@H](O)[C@@H](C)[C@H](OC(C)=O)[C@@H]1C [RIFAMPIN]', '≤ 0.5 µg/mL'),
  ('Cc1onc(-c2ccccc2)c1C(=O)N[C@@H]1C(=O)N2[C@@H]1SC(C)(C)[C@@H]2C(=O)O [OXACILLIN]', '> 16 µg/mL'),
  ('CN[C@H](CC(C)C)C(=O)N[C@H]1C(=O)N[C@@H](CC(N)=O)C(=O)N[C@H]2C(=O)N[C@H]3C(=O)N[C@H](C(=O)N[C@H](C(=O)O)c4cc(O)cc(O)c4-c4cc3ccc4O)[C@H](O)c3ccc(c(Cl)c3)Oc3cc2cc(c3O[C@@H]2O[C@H](CO)[C@@H](O)[C@H](O)[C@H]2O[C@H]2C[C@](C)(N)[C@H](O)[C@H](C)O2)Oc2ccc(cc2Cl)[C@H]1O [VANCOMYCIN]', '512 µg/mL');
